# Test system: P. aeruginosa LES400 (MDR)
# Method notes: microbe, parasite or virus in culture
# Run conditions: LES400 (MDR)
Numbered stars: 1 amine (or outer) side, 2 acyl side, 3 side chain; on linkers, the order of the positions; unused ones are H or OH. Square brackets hold non-standard residues; d marks the D form. Peptide text beside a SMILES is read from it. X1 = CC(C)[C@H](C)N(CC(=O)[*:2])[*:1]; Nspe = C[C@H](NCC(=O)O)c1ccccc1; Nphe = O=C(O)CNCc1ccccc1; Nlys = NCCCCNCC(=O)O
Measure: MIC (µg/mL)

INSERT INTO measurements (molecule, measure, numeric_value) VALUES
  ('CC(C)[C@H](C)N(CC(=O)N(CC(=O)N(CCCCN)CC(=O)N(CC(=O)N(CC(=O)N(CCCCN)CC(=O)N(CC(=O)N(CC(=O)N(CCCCN)CC(=O)N(CC(=O)N(CC(N)=O)[C@@H](C)c1ccccc1)[C@@H](C)C(C)C)[C@@H](C)c1ccccc1)[C@@H](C)C(C)C)[C@@H](C)c1ccccc1)[C@@H](C)C(C)C)[C@@H](C)c1ccccc1)C(=O)CNCCCCN [1-Nsdp2.5.8.11, H-(NLys-Nsdp-Nspe)4-NH2] (H-[Nlys][X1][Nspe][Nlys][X1][Nspe][Nlys][X1][Nspe][Nlys][X1][Nspe]-NH2)', 'MIC', 16),
  ('C[C@@H](c1ccccc1)N(CC(=O)N(CC(=O)N(CCCCN)CC(=O)N(CC(=O)N(CC(=O)N(CCCCN)CC(=O)N(CC(=O)N(CC(=O)N(CCCCN)CC(=O)N(CC(=O)N(CC(N)=O)Cc1ccccc1)Cc1ccccc1)Cc1ccccc1)Cc1ccccc1)Cc1ccccc1)Cc1ccccc1)Cc1ccccc1)C(=O)CNCCCCN [Peptoid 1ach-Nspe2, H-(NLys-Nspe-Npm)- (NLys-Npm-Npm)3-NH2] (H-[Nlys][Nspe][Nphe][Nlys][Nphe][Nphe][Nlys][Nphe][Nphe][Nlys][Nphe][Nphe]-NH2)', 'MIC', 4),
  ('C[C@H](NCC(=O)N(CCCCN)CC(=O)N(CC(=O)N(CCCCN)CC(=O)N(CCCCN)CC(=O)N(CC(=O)N(CC(=O)N(CCCCN)CC(=O)N(CC(=O)N(CCCCN)CC(=O)N(CCCCN)CC(=O)N(CC(N)=O)[C@@H](C)c1ccccc1)[C@@H](C)c1ccccc1)[C@@H](C)c1ccccc1)[C@@H](C)c1ccccc1)[C@@H](C)c1ccccc1)c1ccccc1 [1B-NLys4,10, H-(Nspe-NLys-Nspe-NLys-NLys-Nspe)2-NH2] (H-[Nspe][Nlys][Nspe][Nlys][Nlys][Nspe][Nspe][Nlys][Nspe][Nlys][Nlys][Nspe]-NH2)', 'MIC', 16),
  ('C[C@@H](c1ccccc1)N(CC(N)=O)C(=O)CN(Cc1ccccc1)C(=O)CN(CCCCN)C(=O)CN(C(=O)CN(Cc1ccccc1)C(=O)CN(CCCCN)C(=O)CN(C(=O)CN(Cc1ccccc1)C(=O)CN(CCCCN)C(=O)CN(C(=O)CN(Cc1ccccc1)C(=O)CNCCCCN)[C@@H](C)c1ccccc1)[C@@H](C)c1ccccc1)[C@@H](C)c1ccccc1 [1-Npm2,5,8,11, H-(NLys-Npm-Nspe)4-NH2] (H-[Nlys][Nphe][Nspe][Nlys][Nphe][Nspe][Nlys][Nphe][Nspe][Nlys][Nphe][Nspe]-NH2)', 'MIC', 8),
  ('C[C@@H](c1ccccc1)N(CC(N)=O)C(=O)CN(Cc1ccccc1)C(=O)CN(CCCCN)C(=O)CN(Cc1ccccc1)C(=O)CN(Cc1ccccc1)C(=O)CN(CCCCN)C(=O)CN(Cc1ccccc1)C(=O)CN(Cc1ccccc1)C(=O)CN(CCCCN)C(=O)CN(Cc1ccccc1)C(=O)CN(Cc1ccccc1)C(=O)CNCCCCN', 'MIC', 4);

---

# Test system: E. coli ATCC 35218
# Assay type: cell-based
# Procedure: MICs against B. subtilis and E. coli screening bacterial strains were determined using serial dilution in 96-well microtiter plates in accordance with CLSI M7-A6 protocols. Briefly, peptoid solution in cation-adjusted Mueller-Hinton broth was prepared by 2:1 serial dilution with a total volume of 50 µL per well. In experimental wells, 50 µL of bacterial inoculums (1 x 10^6 CFU/mL) were added to the peptoid solutions. […]
Numbered stars: 1 amine (or outer) side, 2 acyl side, 3 side chain; on linkers, the order of the positions; unused ones are H or OH. Square brackets hold non-standard residues; d marks the D form. Peptide text beside a SMILES is read from it. X1 = CC(C)[C@H](C)N(CC(=O)[*:2])[*:1]; Nspe = C[C@H](NCC(=O)O)c1ccccc1; Nphe = O=C(O)CNCc1ccccc1; Nlys = NCCCCNCC(=O)O
Measure: MIC E. coli (µM)

INSERT INTO results (molecule, numeric_value) VALUES
  ('C[C@@H](c1ccccc1)N(CC(N)=O)C(=O)CN(Cc1ccccc1)C(=O)CN(CCCCN)C(=O)CN(C(=O)CN(Cc1ccccc1)C(=O)CN(CCCCN)C(=O)CN(C(=O)CN(Cc1ccccc1)C(=O)CN(CCCCN)C(=O)CN(C(=O)CN(Cc1ccccc1)C(=O)CNCCCCN)[C@@H](C)c1ccccc1)[C@@H](C)c1ccccc1)[C@@H](C)c1ccccc1 [1-Npm2,5,8,11, H-(NLys-Npm-Nspe)4-NH2] (H-[Nlys][Nphe][Nspe][Nlys][Nphe][Nspe][Nlys][Nphe][Nspe][Nlys][Nphe][Nspe]-NH2)', 6.3),
  ('C[C@H](NCC(=O)N(CCCCN)CC(=O)N(CC(=O)N(CCCCN)CC(=O)N(CCCCN)CC(=O)N(CC(=O)N(CC(=O)N(CCCCN)CC(=O)N(CC(=O)N(CCCCN)CC(=O)N(CCCCN)CC(=O)N(CC(N)=O)[C@@H](C)c1ccccc1)[C@@H](C)c1ccccc1)[C@@H](C)c1ccccc1)[C@@H](C)c1ccccc1)[C@@H](C)c1ccccc1)c1ccccc1 [1B-NLys4,10, H-(Nspe-NLys-Nspe-NLys-NLys-Nspe)2-NH2] (H-[Nspe][Nlys][Nspe][Nlys][Nlys][Nspe][Nspe][Nlys][Nspe][Nlys][Nlys][Nspe]-NH2)', 50),
  ('C[C@@H](c1ccccc1)N(CC(N)=O)C(=O)CN(CCCCN)C(=O)CN(CCCCN)C(=O)CN(C(=O)CN(C(=O)CN(CCCCN)C(=O)CN(C(=O)CN(CCCCN)C(=O)CN(CCCCN)C(=O)CN(C(=O)CN(C(=O)CNCCCCN)[C@@H](C)c1ccccc1)[C@@H](C)c1ccccc1)[C@@H](C)c1ccccc1)[C@@H](C)c1ccccc1)[C@@H](C)c1ccccc1 [1-NLys5,11, H-(NLys-Nspe-Nspe-NLys-NLys-Nspe)2-NH2] (H-[Nlys][Nspe][Nspe][Nlys][Nlys][Nspe][Nlys][Nspe][Nspe][Nlys][Nlys][Nspe]-NH2)', 50),
  ('CC(C)[C@H](C)N(CC(N)=O)C(=O)CN(C(=O)CN(CCCCN)C(=O)CN(C(=O)CN(C(=O)CN(CCCCN)C(=O)CN(C(=O)CN(C(=O)CN(CCCCN)C(=O)CN(C(=O)CN(C(=O)CNCCCCN)[C@@H](C)C(C)C)[C@@H](C)C(C)C)[C@@H](C)C(C)C)[C@@H](C)C(C)C)[C@@H](C)C(C)C)[C@@H](C)C(C)C)[C@@H](C)C(C)C', 25),
  ('CC(C)[C@H](C)N(CC(=O)N(CCCCN)CC(=O)N(CC(=O)N(CC(=O)N(CCCCN)CC(=O)N(CC(=O)N(CC(=O)N(CCCCN)CC(=O)N(CC(=O)N(CC(N)=O)[C@@H](C)c1ccccc1)[C@@H](C)c1ccccc1)[C@@H](C)C(C)C)[C@@H](C)C(C)C)[C@@H](C)c1ccccc1)[C@@H](C)c1ccccc1)C(=O)CN(C(=O)CNCCCCN)[C@@H](C)C(C)C [1-Nsdp2,3,8,9, H-(NLys-Nsdp-Nsdp-NLys-Nspe-Nspe)2-NH2] (H-[Nlys][X1][X1][Nlys][Nspe][Nspe][Nlys][X1][X1][Nlys][Nspe][Nspe]-NH2)', 12.5),
  ('C[C@@H](c1ccccc1)N(CC(N)=O)C(=O)CN(C(=O)CN(CCCCN)C(=O)CN(Cc1ccccc1)C(=O)CN(Cc1ccccc1)C(=O)CN(CCCCN)C(=O)CN(C(=O)CN(C(=O)CN(CCCCN)C(=O)CN(Cc1ccccc1)C(=O)CN(Cc1ccccc1)C(=O)CNCCCCN)[C@@H](C)c1ccccc1)[C@@H](C)c1ccccc1)[C@@H](C)c1ccccc1', 6.3),
  ('C[C@@H](c1ccccc1)N(CC(N)=O)C(=O)CN(C(=O)CN(CCCCN)C(=O)CN(C(=O)CN(C(=O)CN(CCCCN)C(=O)CN(C(=O)CN(C(=O)CN(CCCCN)C(=O)[C@@H]1CCCN1C(=O)CN(C(=O)CNCCCCN)[C@@H](C)c1ccccc1)[C@@H](C)c1ccccc1)[C@@H](C)c1ccccc1)[C@@H](C)c1ccccc1)[C@@H](C)c1ccccc1)[C@@H](C)c1ccccc1 [Peptoid 1-Pro3, H-NLys-Nspe-L-Pro-(NLys-Nspe-Nspe)3-NH2] (H-[Nlys][Nspe]P[Nlys][Nspe][Nspe][Nlys][Nspe][Nspe][Nlys][Nspe][Nspe]-NH2)', 12.5),
  ('C[C@@H](c1ccccc1)N(CC(N)=O)C(=O)CN(CCCCN)C(=O)CN(C(=O)CN(C(=O)CN(CCCCN)C(=O)CN(C(=O)CN(C(=O)CN(CCCCN)C(=O)CN(C(=O)CN(C(=O)CNCCCCN)[C@@H](C)c1ccccc1)[C@@H](C)c1ccccc1)[C@@H](C)c1ccccc1)[C@@H](C)c1ccccc1)[C@@H](C)c1ccccc1)[C@@H](C)c1ccccc1 [Peptoid 1_11mer, H-(NLys-Nspe-Nspe)3-NLys-Nspe-NH2] (H-[Nlys][Nspe][Nspe][Nlys][Nspe][Nspe][Nlys][Nspe][Nspe][Nlys][Nspe]-NH2)', 6.3),
  ('C[C@@H](c1ccccc1)N(CC(N)=O)C(=O)CN(Cc1ccccc1)C(=O)CN(CCCCN)C(=O)CN(Cc1ccccc1)C(=O)CN(Cc1ccccc1)C(=O)CN(CCCCN)C(=O)CN(Cc1ccccc1)C(=O)CN(Cc1ccccc1)C(=O)CN(CCCCN)C(=O)CN(Cc1ccccc1)C(=O)CN(Cc1ccccc1)C(=O)CNCCCCN', 6.3);
